- Test Summary: Pharmacokinetics, dog
- Type: in vivo, Beagle dogs
- Applied Conditions: beagle, in vivo, po, 5 mg/kg, PO, 5 mg/kg (study with 0.5 mg/kg IV), read-out: T1/2 (converted)
Measured Metric: half-life

Input: I would be grateful if you could share the reported half-life for C[C@H](Nc1ncnc2[nH]cnc12)c1cc2cccc(Cl)c2c(=O)n1-c1ccccc1 .
Output: 3.9 h

---

- Test Summary: Pharmacokinetics, mouse
- Assay type: in vivo, BALB/c mice
- Applied Conditions: BALB/c, in vivo, IV, 10 mg/kg
Measured Metric: Cmax (ng/mL)
Give bare numbers, in ng/mL.

Input: I would be grateful if you could share the reported Cmax for C[C@H](Nc1ncnc2[nH]cnc12)c1cc2cccc(Cl)c2c(=O)n1-c1ccccc1 .
Output: 5560

---

- Test Summary: Clinical study in healthy adult subjects, pharmacokinetics
- Format: in vivo, human
- Applied Conditions: human, plasma, oral, 10 mg, 10 mg Q24 h, Day 14; mean (% CV)
Measured Metric: half-life (h)
Give bare numbers, in h.

Input: I would be grateful if you could share the reported half-life for C[C@H](Nc1ncnc2[nH]cnc12)c1cc2cccc(Cl)c2c(=O)n1-c1ccccc1 .
Output: 11.7

---

Reported pIC50 for target or system PI3K γ (Homo sapiens, UniProt P48736), by entry.
pIC50: −log10 of the molar value.

Completed entries (count: 3):
{"columns": ["Compound", "Measured Target", "pIC50"],
 "data": [
  ["Cc1cccc2cc(Cn3cnc4c(N)ncnc43)n(-c3ccccc3F)c(=O)c12 [Compound 1]", "PI3K γ (Homo sapiens, UniProt P48736)", "< 5.00"],
  ["Cc1cccc2cc(Cn3nc(-c4ccc5oc(N)nc5c4)c4c(N)ncnc43)n(-c3ccccc3)c(=O)c12 [Compound 205]", "PI3K γ (Homo sapiens, UniProt P48736)", "> 7.00"],
  ["Cc1cccc2cc(Cn3nc(-c4ccc5nc(N)[nH]c5c4)c4c(N)ncnc43)n(-c3ccccc3)c(=O)c12 [Compound 302]", "PI3K γ (Homo sapiens, UniProt P48736)", "> 7.00"]
]}

Would you be so kind as to report pIC50 for each listed record?
1. Cc1cccc2cc(Cn3nc(-c4ccc(O)c(Cl)c4)c4c(N)ncnc43)n(-c3ccccc3F)c(=O)c12 [Compound 26]
2. Cc1ccccc1-n1c(Cn2nc(-c3ccc(F)c(O)c3)c3c(N)ncnc32)cc2ccccc2c1=O [Compound 54]
3. Cc1cccc2cc(C(C)Nc3nc(N)nc4[nH]cnc34)n(-c3ccccc3)c(=O)c12 (centres unmarked) [Compound 320]
4. CC(Nc1ncnc2[nH]cnc12)c1cc2ccccc2c(=O)n1-c1ccccc1 (centres unmarked) [Compound 220]
5. Cc1cccc2cc(Cn3nc(I)c4c(N)ncnc43)n(C(C)C)c(=O)c12 [Compound 60]

Output:
["> 7.00", "> 7.00", "> 7.00", "> 6.00", "< 5.00"]

---

Reported pIC50 for target or system PI3K γ (Homo sapiens, UniProt P48736), by entry.
pIC50: −log10 of the molar value.

{"columns": ["Molecule", "pIC50"],
 "data": [
  ["Cc1cccc2cc(Cn3nc(-c4cc(O)cc(F)c4)c4c(N)ncnc43)n(-c3ccccc3F)c(=O)c12", "> 7.00"]
]}

Would you be so kind as to report pIC50 for each listed record?
1. Cc1cccc2cc(Cn3nc(-c4ccc5nc(N)cn5c4)c4c(N)ncnc43)n(-c3ccccc3)c(=O)c12
2. COc1cc(-c2nn(Cc3cc4cccc(C)c4c(=O)n3-c3ccccc3C)c3ncnc(N)c23)ccc1Cl
3. Cc1cccc2cc(Cn3nc(C(F)F)c4c(N)ncnc43)n(-c3ccccc3)c(=O)c12
4. Cc1cccc2cc(Cn3nc(-c4cc(O)cc(F)c4)c4c(N)ncnc43)n(-c3ccccc3O)c(=O)c12
5. CCC(Nc1ncnc2[nH]cnc12)c1cc2cccc(C)c2c(=O)n1-c1ccc(F)cc1 (stereo not shown)
6. CCc1ccccc1-n1c(Cn2nc(I)c3c(N)ncnc32)cc2cccc(C)c2c1=O

Output:
1. > 5.00
2. > 7.00
3. > 6.00
4. > 7.00
5. > 7.00
6. > 7.00

Would you be so kind as to report pIC50 for each listed record?
1. Cc1cccc2cc(Cn3nc(I)c4c(N)ncnc43)n(C)c(=O)c12
2. Cc1ccccc1-n1c(Cn2nc(C#N)c3c(N)ncnc32)cc2cccc(C)c2c1=O
3. Cc1cccnc1-n1c(Cn2nc(-c3ccc4oc(N)nc4c3)c3c(N)ncnc32)cc2cccc(C)c2c1=O
4. Cc1cccc2cc(Cn3nc(-c4ccc5oc(N)nc5c4)c4c(N)ncnc43)n(C3CCC3)c(=O)c12

Output:
> 5.00
> 5.00
> 7.00
> 7.00

Would you be so kind as to report pIC50 for each listed record?
1. Cc1cccnc1-n1c(Cn2nc(-c3cc(O)cc(F)c3)c3c(N)ncnc32)cc2cccc(C)c2c1=O
2. CNc1ncc(Cl)c(N[C@@H](C)c2cc3cccc(C)c3c(=O)n2-c2ccccc2)n1
3. Cc1cccc2cc([C@H](C)Nc3nc(Cl)nc4[nH]cnc34)n(C3CC3)c(=O)c12
4. COc1ccc(-c2nn(Cc3cc4cccc(C)c4c(=O)n3-c3ccccc3C)c3ncnc(N)c23)cc1

Output:
1: > 7.00; 2: > 6.00; 3: > 6.00; 4: > 7.00

Input: I would be grateful if you could share the reported pIC50 for Cc1cccc2cc(Cn3nc(I)c4c(N)ncnc43)n(C3CCCC3)c(=O)c12 .
Output: > 5.00

---

- Test Summary: Clinical study in healthy adult subjects, pharmacokinetics
- Assay type: in vivo, human
- Applied Conditions: human, plasma, oral, 10 mg, 10 mg Q24 h, Day 1; mean (% CV); read-out: AUC(0-tau)
Measured Metric: AUC (ng·h/mL)
Give bare numbers, in ng·h/mL.

Input: I would be grateful if you could share the reported AUC for C[C@H](Nc1ncnc2[nH]cnc12)c1cc2cccc(Cl)c2c(=O)n1-c1ccccc1 .
Output: 1530

---

- Test Summary: Pharmacokinetics, rat
- Type: in vivo, Sprague-Dawley rats
- Applied Conditions: Sprague-Dawley, in vivo, IV, 2 mg/kg
Measured Metric: Cmax (ng/mL)
One number for each entry, in ng/mL.

Input: I would be grateful if you could share the reported Cmax for C[C@H](Nc1ncnc2[nH]cnc12)c1cc2cccc(Cl)c2c(=O)n1-c1ccccc1 .
Output: 1520

---

- Test Summary: Clinical study in healthy adult subjects, pharmacokinetics
- Format: in vivo, human
- Applied Conditions: human, plasma, oral, 5 mg, 5 mg Q12 h, Day 1; mean (% CV); read-out: AUC(0-tau)
Measured Metric: AUC (ng·h/mL)
Give bare numbers, in ng·h/mL.

Input: I would be grateful if you could share the reported AUC for C[C@H](Nc1ncnc2[nH]cnc12)c1cc2cccc(Cl)c2c(=O)n1-c1ccccc1 .
Output: 774

---

- Test Summary: Pharmacokinetics, rat
- Assay type: in vivo, Sprague-Dawley rats
- Applied Conditions: Sprague-Dawley, in vivo, PO, 10 mg/kg, read-out: T1/2 (converted)
Measured Metric: half-life
Please state the value followed by its unit.

Input: I would be grateful if you could share the reported half-life for C[C@H](Nc1ncnc2[nH]cnc12)c1cc2cccc(Cl)c2c(=O)n1-c1ccccc1 [Compound 292] .
Output: 2.4 h

---

- Test Summary: Pharmacokinetics, dog
- Type: in vivo, Beagle dogs
- Applied Conditions: beagle, in vivo, iv, 1 mg/kg, IV, 1 mg/kg, read-out: T1/2 (converted)
Measured Metric: half-life (h)
Give bare numbers, in h.

Input: I would be grateful if you could share the reported half-life for C[C@H](Nc1ncnc2[nH]cnc12)c1cc2cccc(Cl)c2c(=O)n1-c1ccccc1 [Compound 292] .
Output: 1.83

---

- Test Summary: 13-week repeat-dose safety study, monkey
- Applied Conditions: both, cynomolgus monkey, in vivo, po
Measured Metric: NOAEL at 13 weeks (mg/kg/day)
Numbers only, in mg/kg/day.

Input: I would be grateful if you could share the reported NOAEL at 13 weeks for C[C@H](Nc1ncnc2[nH]cnc12)c1cc2cccc(Cl)c2c(=O)n1-c1ccccc1 .
Output: 5

---

- Test Summary: Clinical study in healthy adult subjects, pharmacokinetics
- Format: in vivo, human
- Applied Conditions: human, plasma, oral, 5 mg, 5 mg Q12 h, Day 14; mean (% CV)
Measured Metric: half-life (h)
Numbers only, in h.

Input: I would be grateful if you could share the reported half-life for C[C@H](Nc1ncnc2[nH]cnc12)c1cc2cccc(Cl)c2c(=O)n1-c1ccccc1 .
Output: 8.32

---

- Test Summary: Pharmacokinetics, mouse
- Format: in vivo, BALB/c mice
- Applied Conditions: BALB/c, in vivo, IV, 10 mg/kg
Measured Metric: AUC(0-inf)
Please state the value followed by its unit.

Input: I would be grateful if you could share the reported AUC(0-inf) for C[C@H](Nc1ncnc2[nH]cnc12)c1cc2cccc(Cl)c2c(=O)n1-c1ccccc1 .
Output: 1900 ng·h/mL
